Measured values drawn from paper PMC6893700 for this set.

- Test system: ZIKV strain FLR
- Method: Plaque reduction inhibition assay, ZIKV FLR in Vero E6 cells
- Assay type: cell-based
- Applied Conditions: Zika virus, Vero C1008; plaque reduction, Vero E6 cells; read-out: IC50 FLR
Attribute Measured: pIC50
Remember the convention: pIC50 equals -log10 of concentration in molar.

// worked examples, pIC50 included
compound="C[C@H]1[C@H]2CC[C@H]3[C@@H]4CC=C5C[C@@H](N(C)C)CC[C@]5(C)[C@H]4CC[C@]23CN1C [Conessine, conessine]" result_number=5.02
compound="C[C@@H]1CC[C@@]2(OC1)O[C@H]1[C@@H](O)[C@H]3[C@@H]4CC[C@H]5C[C@@H](O[C@@H]6O[C@H](CO)[C@H](O[C@@H]7O[C@H](CO)[C@@H](O)[C@H](O[C@@H]8OC[C@@H](O)[C@H](O)[C@H]8O)[C@H]7O[C@@H]7O[C@H](CO)[C@H](O)[C@H](O[C@@H]8O[C@H](CO)[C@@H](O)[C@H](O)[C@H]8O)[C@H]7O)[C@H](O)[C@H]6O)[C@H](O)C[C@]5(C)[C@H]4CC[C@]3(C)[C@H]1[C@@H]2C [Digitonin, digitonin]" result_number=5.48
compound="CC(C)C[C@H](NC(=O)[C@H](Cc1ccccc1)NC(=O)c1cnccn1)B(O)O [Bortezomib, bortezomib, reference compound]" result_number=5.02

Task: Give its pIC50 value. Item: COc1cc(/C=C/C(=O)CC(=O)/C=C/c2ccc(O)c(OC)c2)ccc1O [Curcumin, curcumin]
Result: 4.78
